Field: percent inhibition of TTC39C mRNA. Provide a value for each of the substances that follow.
test system: murine TTC39C mRNA; assay: Dose-dependent antisense inhibition of murine TTC39C in mouse primary hepatocytes; type: cell-based; conditions: 500.0 nM, electroporation, ~16 h
Oligonucleotides are written 5' to 3', each unit as a sugar letter and its base; * is a phosphorothioate linkage, no mark a phosphodiester; rarer units and linkages stand in square brackets, end groups in braces. Plain capitals give the bases only. e = 2'-O-(2-methoxyethyl) (MOE); [5mC] = 5-methylcytosine; d = 2'-deoxy (DNA)
Please respond with the number in % and leave the unit unwritten.

IN: Quick one: percent inhibition of TTC39C mRNA for ISIS 474589: 5-10-5 MOE gapmer antisense oligonucleotide targeting murine TTC39C (antisense eT*e[5mC]*e[5mC]*eG*eA*dA*dA*dT*d[5mC]*dG*d[5mC]*dT*d[5mC]*dA*dG*e[5mC]*e[5mC]*eT*eG*e[5mC]) ?
OUT: 95

IN: Quick one: percent inhibition of TTC39C mRNA for ISIS 474540: 5-10-5 MOE gapmer antisense oligonucleotide targeting murine TTC39C (antisense e[5mC]*e[5mC]*eA*e[5mC]*eT*dG*dG*dG*dA*dG*dT*dT*dT*dA*dT*e[5mC]*eA*e[5mC]*eT*eG) ?
OUT: 43

IN: Quick one: percent inhibition of TTC39C mRNA for ISIS 474595: 5-10-5 MOE gapmer antisense oligonucleotide targeting murine TTC39C (antisense eG*eT*e[5mC]*eA*eT*d[5mC]*dG*d[5mC]*dA*d[5mC]*dG*d[5mC]*d[5mC]*dA*dA*e[5mC]*eT*eG*e[5mC]*eA) ?
OUT: 80

IN: Quick one: percent inhibition of TTC39C mRNA for ISIS 474662: 5-10-5 MOE gapmer antisense oligonucleotide targeting murine TTC39C (antisense eG*eG*eA*eT*eT*dT*d[5mC]*d[5mC]*dG*dG*dG*d[5mC]*dA*dT*d[5mC]*eA*eA*e[5mC]*e[5mC]*eT) ?
OUT: 28

* * *

Tested on: murine TTC39A mRNA
Experiment: Dose-dependent antisense inhibition of murine TTC39A in b.END cells
Assay type: cell-based, mouse
Settings: 70.0 nM, ~16 h
Protocol: Cells were plated at a density of 3,500 cells per well and transfected using cytofectin reagent with 4.375 nM, 8.75 nM, 17.5 nM, 35 nM, 70 nM, and 140 nM concentrations of antisense oligonucleotide, as specified in Table 28. After a treatment period of approximately 16 hours, RNA was isolated from the cells and TTC39A mRNA levels were measured by quantitative real-time PCR. […] TTC39A mRNA levels were adjusted according to total RNA content, as measured by RIBOGREEN®. […]
Oligonucleotides are written 5' to 3', each unit as a sugar letter and its base; * is a phosphorothioate linkage, no mark a phosphodiester; rarer units and linkages stand in square brackets, end groups in braces. Plain capitals give the bases only. e = 2'-O-(2-methoxyethyl) (MOE); [5mC] = 5-methylcytosine; d = 2'-deoxy (DNA)
Classification field: rule met = percent inhibition of TTC39A mRNA at or over 60%; rule not met = percent inhibition of TTC39A mRNA under 60%.

IN: Given AGTTGGGACCCAGAAGGCCT (eA*eG*eT*eT*eG*dG*dG*dA*d[5mC]*d[5mC]*d[5mC]*dA*dG*dA*dA*eG*eG*e[5mC]*e[5mC]*eT; antisense) [ISIS 474497] , state whether its percent inhibition of TTC39A mRNA is at least 60%.
OUT: rule not met

IN: Given GCCTCAGAATCCTGGTGGGA (eG*e[5mC]*e[5mC]*eT*e[5mC]*dA*dG*dA*dA*dT*d[5mC]*d[5mC]*dT*dG*dG*eT*eG*eG*eG*eA; antisense) [ISIS 474437] , state whether its percent inhibition of TTC39A mRNA is at least 60%.
OUT: rule met

IN: Given TCGGTGCCTCTGACACAGCG (eT*e[5mC]*eG*eG*eT*dG*d[5mC]*d[5mC]*dT*d[5mC]*dT*dG*dA*d[5mC]*dA*e[5mC]*eA*eG*e[5mC]*eG; antisense) [ISIS 474474] , state whether its percent inhibition of TTC39A mRNA is at least 60%.
OUT: rule met

IN: Given CGCCTGGACTTCCGGATAGC (e[5mC]*eG*e[5mC]*e[5mC]*eT*dG*dG*dA*d[5mC]*dT*dT*d[5mC]*d[5mC]*dG*dG*eA*eT*eA*eG*e[5mC]; antisense) [ISIS 474369] , state whether its percent inhibition of TTC39A mRNA is at least 60%.
OUT: rule met

IN: Given CACCTGGGTTTGAGGTAGCT (e[5mC]*eA*e[5mC]*e[5mC]*eT*dG*dG*dG*dT*dT*dT*dG*dA*dG*dG*eT*eA*eG*e[5mC]*eT; antisense) [ISIS 474498] , state whether its percent inhibition of TTC39A mRNA is at least 60%.
OUT: rule met

IN: Given GCATGTAGAGAACTTCCAGG (eG*e[5mC]*eA*eT*eG*dT*dA*dG*dA*dG*dA*dA*d[5mC]*dT*dT*e[5mC]*e[5mC]*eA*eG*eG; antisense) [ISIS 474382] , state whether its percent inhibition of TTC39A mRNA is at least 60%.
OUT: rule met
